Item-by-item account of YAP1 (% UT)
Test system: Yap1 mRNA
Test: Antisense inhibition of human Yap1 in SNU-449 cells by modified oligonucleotides, single dose (Example 5, RTS36584)
Type: cell-based
Conditions: Table 46; Yap1 mRNA as percent of untreated control, SNU-449 cells, single dose
Strand notation (5' to 3'): a small letter for the sugar, then the base; units joined by * are phosphorothioate-linked, units joined directly phosphodiester-linked; [ ] holds rarer units or linkages, { } end groups; capitals alone tell only the bases. e = 2'-O-(2-methoxyethyl) (MOE); k = constrained ethyl (cEt); [5mC] = 5-methylcytosine; d = 2'-deoxy (DNA)
METRIC: YAP1 (% UT)

>>> df
                                  substance  assay_result
0  1198887 (kG*kA*d[5mC]*dT*dA*dA*dG*dT*dA*dA*dG*kG*eT*kT*eT*k[5mC]; antisense) [Compound 1198887]            71
1  1198820 (kT*kA*dT*dA*dT*dT*dA*dG*dA*dG*dT*kA*eT*kG*eT*kG; antisense) [Compound 1198820]            62
2  715487 (antisense kA*kT*kT*dA*d[5mC]*dT*dT*d[5mC]*dA*dT*dA*dG*d[5mC]*kT*kT*kA) [Compound 715487]            25

Entry source: patent US11214803B2
